- Test Target: T1, hHER3 full length (human, UniProt P21860 20-1342)
- T1 construct: On transfected CHO, CHO HER2/HER3, CHO EGFR/HER3 or CHO Flp-In cells; endogenous HER3 of MCF-7 and MDA-MB468 cells in the signalling assays; also called human HER3
- Assay Method Text: FACS, 400 nM, competitor 04C07-biotin
Observable: % competition (%)

Please review the entries below; each comes with its answer.
{"Binder": "34C07 (VHH, c-myc, His6-tagged form as expressed; also called 34C7; HER3MS34C07) VHH: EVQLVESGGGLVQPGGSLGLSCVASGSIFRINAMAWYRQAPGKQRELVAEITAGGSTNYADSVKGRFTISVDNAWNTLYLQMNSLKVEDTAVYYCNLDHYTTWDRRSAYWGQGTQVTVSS", "Output Unit": "%", "% competition": 0}
{"Binder": "17E08 (VHH) VHH: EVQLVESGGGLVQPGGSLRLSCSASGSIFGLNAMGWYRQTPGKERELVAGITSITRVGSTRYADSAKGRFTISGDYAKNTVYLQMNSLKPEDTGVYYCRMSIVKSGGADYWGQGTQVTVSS", "Output Unit": "%", "% competition": 100}

A. 21B02 (VHH) VHH: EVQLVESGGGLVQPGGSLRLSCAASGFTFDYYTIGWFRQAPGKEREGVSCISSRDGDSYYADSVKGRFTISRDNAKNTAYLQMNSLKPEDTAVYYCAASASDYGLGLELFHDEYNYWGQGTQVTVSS
B. 17B05 (VHH, also called HER3MS17B05; HER3MS017B05) VHH: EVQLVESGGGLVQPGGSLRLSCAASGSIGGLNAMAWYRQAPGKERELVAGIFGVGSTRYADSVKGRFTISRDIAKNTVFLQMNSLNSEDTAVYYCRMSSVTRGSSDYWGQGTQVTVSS
C. 23F05 (VHH) VHH: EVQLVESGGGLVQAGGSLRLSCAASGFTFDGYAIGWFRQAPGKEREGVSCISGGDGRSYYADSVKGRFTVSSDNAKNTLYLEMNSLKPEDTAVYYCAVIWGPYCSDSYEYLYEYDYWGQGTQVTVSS
D. 34A04 (VHH) VHH: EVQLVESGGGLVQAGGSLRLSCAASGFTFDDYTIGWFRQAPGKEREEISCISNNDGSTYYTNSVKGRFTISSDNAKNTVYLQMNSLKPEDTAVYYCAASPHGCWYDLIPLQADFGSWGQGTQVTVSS
Order these by % competition, descending, and give the full ranking. Answer by writing out the labels in the requested order. B, D, A, C
